// data source = patent US20220281976A1

Biological target: T1, human monomeric His tagged CD33 protein (human, UniProt P20138 18-259)
T1 construct: also called hCD33-His
T1 sequence (P20138 18-259 limits assumed): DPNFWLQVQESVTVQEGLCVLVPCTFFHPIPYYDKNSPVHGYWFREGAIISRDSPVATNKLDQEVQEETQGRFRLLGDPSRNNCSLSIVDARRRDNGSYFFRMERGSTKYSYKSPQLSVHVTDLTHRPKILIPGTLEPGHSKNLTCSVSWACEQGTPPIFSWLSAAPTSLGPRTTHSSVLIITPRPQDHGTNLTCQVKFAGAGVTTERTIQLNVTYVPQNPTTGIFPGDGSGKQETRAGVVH
Assay: ForteBio BLI or MSD-SET, IgG, monomeric antigen;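 note: BLI: antibodies captured on AHQ sensors, 100 nM antigen association 5 min, dissociation 5 min, 1:1 fit. MSD-SET: antigen fixed at 50 pM, antibody titrated, quadratic fit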
Returns: string. Value is YES if measured Kd is below 5 nM, and NO if it is greater than or equal to it.

>  <binder>
C-27 (antibody, V domains shown, human IgG1) VH: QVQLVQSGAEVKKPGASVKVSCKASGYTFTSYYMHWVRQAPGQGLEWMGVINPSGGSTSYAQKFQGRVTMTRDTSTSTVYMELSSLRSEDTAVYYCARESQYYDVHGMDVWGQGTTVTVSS VL: DIQMTQSPSSLSASVGDRVTITCRASQSISSYLNWYQQKPGKAPKLLIYAASSLQSGVPSRFSGSGSGTDFTLTISSLQPEDFATYYCQQHYDIPLTFGGGTKVEIK

>  <qualitative label>
NO

$$$$
>  <binder>
C-19 (antibody, V domains shown, human IgG1) VH: QLQLQESGPGLVKPSETLSLTCTVSGGSISSSSYAWGWIRQPPGKGLEWIGSIYYSGSTYYNPSLKSRVTISVDTSKNQFSLKLSSVTAADTAVYYCARVGYTRPYGMDVWGQGTTVTVSS VL: DIQMTQSPSSVSASVGDRVTITCRASQGISSWLAWYQQKPGKAPKLLIYAASSLQSGVPSRFSGSGSGTDFTLTISSLQPEDFATYYCQQINAHPTFGGGTKVEIK

>  <qualitative label>
YES

$$$$
>  <binder>
C-75 (antibody, V domains shown, human IgG1) VH: EVQLLESGGGLVQPGGSLRLSCAASGFTFSSYAMSWVRQAPGKGLEWVSAISASGGSTYYADSVKGRFTISRDNSKNTLYLQMNSLRAEDTAVYYCARLHMTGTASSGMDVWGQGTTVTVSS VL: DIVMTQSPDSLAVSLGERATINCKSSQSVLYSSNNKNYLAWYQQKPGQAPRLLIYGASSRATGIPDRFSGSGSGTDFTLTISRLEPEDFAVYYCQQDYSSPLTFGGGTKVEIK

>  <qualitative label>
YES

$$$$
>  <binder>
C-16 (antibody, V domains shown, human IgG1) VH: EVQLVESGGGLVQPGGSLRLSCAASGFTFSSYWMSWVRQAPGKGLEWVANINQDGSEKYYVDSVKGRFTISRDNAKNSLYLQMNSLRAEDTAVYYCAREGSDRHPFDYWGQGTLVTVSS VL: DIQMTQSPSSLSASVGDRVTITCRASQSISSYLNWYQQKPGKAPKLLIYAASSLQSGVPSRFSGSGSGTDFTLTISSLQPEDFATYYCQQAYLVPLTFGGGTKVEIK

>  <qualitative label>
NO

$$$$
>  <binder>
C-64 (antibody, V domains shown, human IgG1) VH: QVQLVQSGAEVKKPGSSVKVSCKASGGTFSSLAISWVRQAPGQGLEWMGGIIPIFGTANYAQKFQGRVTITADESTSTAYMELSSLRSEDTAVYYCARGTFYSDELFDYWGQGTLVTVSS VL: DIQMTQSPSSVSASVGDRVTITCRASQGISSWLAWYQQKPGKAPKLLIYAASSLQSGVPSRFSGSGSGTDFTLTISSLQPEDFATYYCQQENSYPLTFGGGTKVEIK

>  <qualitative label>
NO

$$$$
